# Tested system: serotonin-2 receptor (Rattus norvegicus, UniProt P14842)
# Sequence (P14842 whole entry): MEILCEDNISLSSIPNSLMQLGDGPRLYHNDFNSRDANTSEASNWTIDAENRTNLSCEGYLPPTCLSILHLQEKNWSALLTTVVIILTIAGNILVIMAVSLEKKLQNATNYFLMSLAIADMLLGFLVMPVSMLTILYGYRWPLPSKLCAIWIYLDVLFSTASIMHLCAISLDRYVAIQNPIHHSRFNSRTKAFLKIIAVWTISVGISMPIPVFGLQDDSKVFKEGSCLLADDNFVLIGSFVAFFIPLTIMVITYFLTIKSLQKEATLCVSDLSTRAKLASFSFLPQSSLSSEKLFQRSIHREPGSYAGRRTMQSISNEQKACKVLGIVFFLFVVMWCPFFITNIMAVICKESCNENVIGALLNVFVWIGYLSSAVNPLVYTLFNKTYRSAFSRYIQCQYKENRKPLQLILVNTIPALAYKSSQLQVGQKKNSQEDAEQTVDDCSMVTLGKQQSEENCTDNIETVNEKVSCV
# strict inequality: Ki < 70 nM yields 1 (yes), everything else yields 0 (no)

Examples from the recorded data:
(Q) In the record for Cl.O=C1CCC(c2ccc(CCN3CCN(c4cccc(C(F)(F)F)c4)CC3)cc2)N1 (stereo not drawn) [Example 2, hydrochloride] , is Ki less than 70 nM?
(A) 0 (no)

(Q) Then what about the compound O=C1CCC(c2ccc(CCCCN3CCN(c4ccc(F)cc4)CC3)cc2)N1 (stereo not drawn) ?
(A) 1 (yes)

(Q) Moving on to O=C1CCC(c2ccc(CCCN3CCN(c4ccccc4)CC3)cc2)N1 (stereo not drawn)
(A) 0 (no)

(Q) Also Cc1cccc(N2CCN(CCCCc3ccc(C4CCC(=O)N4)cc3)CC2)c1 (stereo not drawn) , if possible.
(A) 1 (yes)

(Q) Further, for Cl.Cl.O=C1CCC(c2ccc(CCCCN3CCN(c4cccc(C(F)(F)F)c4)CC3)cc2)N1 (stereo not drawn) [Example 15, dihydrochloride] ?
(A) 1 (yes)

Okay, next one:
(Q) Consider the compound COc1ccccc1N1CCN(CCCCc2ccc(C3CCC(=O)N3)cc2)CC1 (stereo not drawn) . Is its Ki strictly less than 70 nM?
(A) 0 (no)

----------
# Assay explanation: Experiment 4 Cataleptogenic action
# Assay type: in vivo, female Wistar-strain rats
# Details: rat, in vivo, po; orally; peak time of catalepsy within 9 hours; probit method
# Method: Then, the cataleptogenic action of the compound of Example 15 was studied for the purpose of measuring the degree of the extrapyramidal side effect. […] Experiment 4 Cataleptogenic action Groups of 10 female Wistar-strain rats were used. Catalepsy was measured by the partly modified method of Simon et al (Journal of Pharmacy and Pharmacology, vol. 22, P. 546, 1970). […] After the compound of Example 15 was orally administered, catalepsy was measured with the passage of time in 9 hours.
Assay endpoint: ED50 (mg/kg)
Quick reminder: number only, in mg/kg, skip the unit.

(Q) Need ED50, item Cl.Cl.O=C1CCC(c2ccc(CCCCN3CCN(c4cccc(C(F)(F)F)c4)CC3)cc2)N1 (stereo not shown) [Example 15]
(A) 250

----------
# Test system: serotonin-induced head-twitch
# Assay explanation: Experiment 2 Anti-serotonin action (head-twitch method in mice)
# Format: in vivo, male dd-strain mice
# Details: Mus musculus, po; serotonin 40 μg/0.02 ml i.c.v. 1 h after compound; head-twitch counted 5 min; probit method
Listed next: entries and their corresponding ED50.
Field format: number, assumed mg/kg, no unit text.

The cases that follow already have their ED50 on record.
(Q) State the recorded ED50 for this entry: Cl.O=C1CCC(c2ccc(CCN3CCN(c4cccc(C(F)(F)F)c4)CC3)cc2)N1 (stereo not drawn)
(A) 0.15

(Q) # iterate: O=C1CCC(c2ccc(CCCCN3CCN(c4ccc(F)cc4)CC3)cc2)N1 (stereo not drawn)
(A) 2.2

(Q) Entry to check: O=C1CCC(c2ccc(CCCN3CCN(c4ccccc4)CC3)cc2)N1 (stereo not drawn)
(A) 2.4

(Q) Now this one: Cc1cccc(N2CCN(CCCCc3ccc(C4CCC(=O)N4)cc3)CC2)c1 (stereo not drawn)
(A) 0.53

(Q) And Cl.Cl.O=C1CCC(c2ccc(CCCCN3CCN(c4cccc(C(F)(F)F)c4)CC3)cc2)N1 (stereo not drawn) ?
(A) 0.32

Please examine the following record next.
(Q) Using the record for COc1ccccc1N1CCN(CCCCc2ccc(C3CCC(=O)N3)cc2)CC1 (stereo not drawn) , report its ED50.
(A) 3.5
